Procedure summary: Cmax in dog plasma after 1mg/kg oral dose
Assay type: ADME, organism-based, Canis lupus familiaris
Set-up: dose 1 mg/kg, route oral
Metric name: Cmax (nM)

(I) Cc1nc(N)ccc1CNC(=O)Cn1c(C)cc2c(c1=O)NC(=O)[C@](C)(CC(C)C)C2
(II) Cc1nc(N)ccc1CNC(=O)Cn1c(C)cc2c(c1=O)NC(=O)[C@H](CC(C)C)C2
Between I and II , whose recorded Cmax is greater? Give the label under which the chosen entry appears. I

====

Procedure summary: The compound was tested in vitro for its anticoagulant potency (2x APTT) of human plasma
Format: functional
The entries below come with measured Concentration doubling APTT values attached.
Could you give me the number in nM? Just the number is fine.

The cases that follow already have their Concentration doubling APTT on record.
Fill in: Concentration doubling APTT of CCC[C@@H]1Cc2cc(C)n(CC(=O)NCc3ccc(N)nc3C)c(=O)c2NC1=O is ___ 180

Fill in: Concentration doubling APTT of Cc1nc(N)ccc1CNC(=O)Cn1c(C)cc2c(c1=O)NC(=O)[C@H](Cc1ccccc1)C2 is ___ 200

Fill in: Concentration doubling APTT of CC[C@@H]1Cc2cc(C)n(CC(=O)NCc3ccc(N)nc3C)c(=O)c2NC1=O is ___ 310

Fill in: Concentration doubling APTT of Cc1nc(N)ccc1CNC(=O)Cn1c(C)cc2c(c1=O)NC(=O)[C@](C)(CC(C)C)C2 is ___ 160

Moving on to another compound below.
Fill in: Concentration doubling APTT of Cc1nc(N)ccc1CNC(=O)Cn1c(C)cc2c(c1=O)NC(=O)[C@H](CC1CC1)C2 is ___ 150
